# ADC potency, IC50 (nM), Molt-4 growth inhibition per record follows
# target-or-test-system: T1, Human CD98, endogenous on HCC38, Molt-4 and Jurkat human cancer cells (human)
# T1 chain: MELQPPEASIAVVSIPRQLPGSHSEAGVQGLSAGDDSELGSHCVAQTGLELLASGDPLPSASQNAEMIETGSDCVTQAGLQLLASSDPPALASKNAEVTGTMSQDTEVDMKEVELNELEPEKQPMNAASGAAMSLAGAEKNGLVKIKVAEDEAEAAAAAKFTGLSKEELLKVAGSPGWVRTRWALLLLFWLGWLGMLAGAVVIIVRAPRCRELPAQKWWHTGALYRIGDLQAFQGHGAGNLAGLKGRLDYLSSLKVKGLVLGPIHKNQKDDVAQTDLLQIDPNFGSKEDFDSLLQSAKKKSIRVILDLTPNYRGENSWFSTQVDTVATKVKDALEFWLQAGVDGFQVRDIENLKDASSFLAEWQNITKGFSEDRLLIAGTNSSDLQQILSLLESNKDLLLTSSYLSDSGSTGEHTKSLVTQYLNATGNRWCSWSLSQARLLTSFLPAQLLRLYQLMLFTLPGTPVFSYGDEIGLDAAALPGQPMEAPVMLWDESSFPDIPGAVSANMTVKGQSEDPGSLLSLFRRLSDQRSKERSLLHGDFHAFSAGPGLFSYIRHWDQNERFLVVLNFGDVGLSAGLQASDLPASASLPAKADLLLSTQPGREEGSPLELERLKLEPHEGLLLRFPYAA
# experiment-summary: cell-based or functional assay
A number alone suffices; assume nM.

binder	units-of-measure	experimental-value
Ab6-CZ (Ab6 conjugated to Bcl-xL inhibitor synthon CZ) (antibody, V domains shown) VH: QVQLKESGPGLAQPSQTLSLTCTVSGFSLSTYGVIWLRQPPGKGLEWMGVIWTNGNTNYNSTLKSRLSISRDTSESQVYLQMNSLQTEDTATYYCARHYYDGAYYYGYFDYWGQGVMVTVSS VL: DIVMTQTPSSQAVSAGEKVTMSCKSSQSLLYSENKKNYLAWYQQKPGQSPKLLIYWASTRESGVPDRFIGSGSGTDFTLTISSVQAEDLAVYYCQQYYYFPYTFGAGTKLELK	nM	0.057

Lookup: Please indicate ADC potency, IC50 (nM), Molt-4 growth inhibition recorded for Ab8-CZ (Ab8 conjugated to Bcl-xL inhibitor synthon CZ) (antibody, V domains shown) VH: EVQLVESGGGLVQPGRSLKLSCAASGFTFSDYAMAWVRQAPKKGLEWVASIIYDGRGTYYRDSVKGRFTISRDNAKSTLYLQMDSLRSEDTATYYCARQGDGTYYYWGYFDYWGQGVMVTVSS VL: DIVMTQSPSSLAVSAGETVTINCKSSQSLLSSGNQKNYLAWYQQKPGQSPKLLIYWASTRQSGVPDRFIGSGSGTDFTLTINSVQAEDLAIYYCQQYYDTPYTFGAGTKLELK
Found: 0.079

Lookup: For the binder Ab14-CZ (Ab14 conjugated to Bcl-xL inhibitor synthon CZ) (antibody, V domains shown) VH: EVKLQQSGDELVRPGASVKISCKASGYTFTSYSMHWVKERPGQGLEWIGAIFPIIGTTEYNQKFKGKATLTADKSSNTANMELSRLTSEDSAVYYCARVYLSYFDYWGQGVMVTVSS VL: DIQMTQSPSFLSASVGDRVTINCKASQNINKYLDWYQRKHGEAPKLLIYNTNNLQTGIPSRFSGSGSGTDYTLTISSLQPEDVATYFCLQHSSRYTFGAGTKLELK , give its measured ADC potency, IC50 (nM), Molt-4 growth inhibition value.
Found: 0.025

Lookup: Quickly give me recorded ADC potency, IC50 (nM), Molt-4 growth inhibition for Ab9-CZ (Ab9 conjugated to Bcl-xL inhibitor synthon CZ) (antibody, V domains shown) VH: QVQLKESGPGLVQPSQTLSLTCAVSGFSLSNYGVIWVRQPPGKGLEWMAVIWTNGNTNYNSTLKSRLSISRDTSKSQVYLKMNSLQTEDTATYYCARHYYDGTYYYGYFDYWGQGVMVTVSS VL: DIVMTQTPSSQAVSAGEKVTMSCKSSQSLLYTENKKNYLAWYQQKPGQSPKLLIYWASTRESGVPDRFMGSGSGTDFTLTISSVQAEDLAVYYCQQYYYFPYMFGAGTKLELK
Found: 0.03

Lookup: Check the records and state ADC potency, IC50 (nM), Molt-4 growth inhibition for Ab11-CZ (Ab11 conjugated to Bcl-xL inhibitor synthon CZ) (antibody, V domains shown) VH: EVQLVESGGGLVQPGRSLKLSCAASGFTFSDYAMAWVRQAPKKGLEWVAGIIYDGRGTYYRDSVKGRFTISRDNAKSTLYLQMDSLRSEDTATYYCARQGDGTYYYWGYFDYWGQGVMVTVSS VL: DIVMTQSPSSLAVSAGETVTINCRSSQSLLSSGNQKNYLAWYQQKPGQSPKLLIYWASTRQSGVPDRFIGSGSGTDFTLTISSVQAEDLAIYYCQQYYDTPYTFGAGTKLELK
Found: 0.279
